# System: 624824-186-R-J3-PDC multicell spheroids, viability
# procedure_text: Anticancer human tumor 624824-186-R-J3-PDC patient-derived colon adenocarcinoma cell line growth inhibition [PI3K]
# stated_conditions: curve of first compound; second compound 0.1 µM
measurement_label: pIC50
Please note pIC50 is a logarithmic value: minus log10 of concentration in mol/L. Answer with that number alone.

Need pIC50, item Cn1ncc(Cl)c1-c1cc(C(=O)NC(CN)Cc2cccc(F)c2)sc1Cl (stereo unspecified) + Cc1nc(NC(=O)N2CCCC2C(N)=O)sc1-c1ccnc(C(C)(C)C(F)(F)F)c1
5.55

Now try CC1(C)CCC(CN2CCN(c3ccc(C(=O)NS(=O)(=O)c4ccc(NCC5CCOCC5)c([N+](=O)[O-])c4)c(Oc4cnc5[nH]ccc5c4)c3)CC2)=C(c2ccc(Cl)cc2)C1 + Cc1nc(NC(=O)N2CCCC2C(N)=O)sc1-c1ccnc(C(C)(C)C(F)(F)F)c1 .
5.03

Now try Cn1nccc1Nc1nccc(-c2ccn(C(CO)c3ccc(Cl)c(F)c3)c(=O)c2)n1 (stereo unspecified) + COc1c(OCCCN2CCOCC2)ccc2c3n(c(=NC(=O)c4cnc(N)nc4)nc12)CCN3 .
6.82

Now try CCCS(=O)(=O)Nc1ccc(F)c(C(=O)c2c[nH]c3ncc(-c4ccc(Cl)cc4)cc23)c1F + Cc1nc(NC(=O)N2CCCC2C(N)=O)sc1-c1ccnc(C(C)(C)C(F)(F)F)c1 .
5.33

Now try CC(C)NCC(C(=O)N1CCN(c2ncnc3c2C(C)CC3O)CC1)c1ccc(Cl)cc1 (stereo unspecified) + Cc1nc(NC(=O)N2CCCC2C(N)=O)sc1-c1ccnc(C(C)(C)C(F)(F)F)c1 .
5.29

Now try Cn1cnc2c(F)c(Nc3ccc(Br)cc3Cl)c(C(=O)NOCCO)cc21 + Cc1nc(NC(=O)N2CCCC2C(N)=O)sc1-c1ccnc(C(C)(C)C(F)(F)F)c1 .
6.05

Now try CC1(C)CCC(CN2CCN(c3ccc(C(=O)NS(=O)(=O)c4ccc(NCC5CCOCC5)c([N+](=O)[O-])c4)c(Oc4cnc5[nH]ccc5c4)c3)CC2)=C(c2ccc(Cl)cc2)C1 + CC(Nc1ccc2c(c1)OCCn1cc(N3C(=O)OCC3C(F)F)nc1-2)C(N)=O .
5.03

###

# Tested on: 624824-186-R-J3-PDC multicell spheroids, viability
# procedure_text: Anticancer human tumor 624824-186-R-J3-PDC cell line growth inhibition [PI3K];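 also: spheroids exposed to agents for seven days before luminescence read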
# stated_conditions: curve of first compound; second compound 0.1 µM
Label key: true (1) means IC50 under 1 µM; false (0) means IC50 of 1 µM or more.

Please check: IC50 for C[C@@H](NC(=O)c1ncnc(N)c1Cl)c1ncc(C(=O)Nc2cc(C(F)(F)F)c(Cl)cn2)s1 + Cc1nc(NC(=O)N2CCCC2C(N)=O)sc1-c1ccnc(C(C)(C)C(F)(F)F)c1 , strictly under 1 µM or not?
false (0)

Now try Cn1cnc2c(F)c(Nc3ccc(Br)cc3Cl)c(C(=O)NOCCO)cc21 + CC(Nc1ncnc2nc[nH]c12)c1cc2cccc(Cl)c2c(=O)n1-c1ccccc1 .
false (0)

Now try CC1(C)CCC(Nc2ncc(C(F)(F)F)c(-c3c[nH]c4c(P(C)(C)=O)c(C#N)ccc34)n2)CN1 (stereo unspecified) + CC(Nc1ncnc2nc[nH]c12)c1cc2cccc(Cl)c2c(=O)n1-c1ccccc1 .
false (0)

Now try CC(Cn1ccc(-c2ccc(C#N)c(Cl)c2)n1)NC(=O)c1cc(C(C)O)[nH]n1 (stereo unspecified) + Cc1nc(NC(=O)N2CCCC2C(N)=O)sc1-c1ccnc(C(C)(C)C(F)(F)F)c1 .
false (0)

Now try CC(C)n1nc(-c2ccc3oc(N)nc3c2)c2c(N)ncnc21 + Cc1nc(NC(=O)N2CCCC2C(N)=O)sc1-c1ccnc(C(C)(C)C(F)(F)F)c1 .
true (1)

Now try Cn1ncc(Cl)c1-c1cc(C(=O)NC(CN)Cc2cccc(F)c2)sc1Cl (stereo unspecified) + COc1c(OCCCN2CCOCC2)ccc2c3n(c(=NC(=O)c4cnc(N)nc4)nc12)CCN3 .
false (0)

Now try CNC(=O)c1ccc(N2C(=S)N(c3ccc(C#N)c(C(F)(F)F)c3)C(=O)C2(C)C)cc1F + CC(Nc1ccc2c(c1)OCCn1cc(N3C(=O)OCC3C(F)F)nc1-2)C(N)=O .
false (0)

Now try CCN1CCN(Cc2ccc(Nc3ncc(F)c(-c4cc(F)c5nc(C)n(C(C)C)c5c4)n3)nc2)CC1 + COc1c(OCCCN2CCOCC2)ccc2c3n(c(=NC(=O)c4cnc(N)nc4)nc12)CCN3 .
true (1)

Now try CCN1CCN(Cc2ccc(Nc3ncc(F)c(-c4cc(F)c5nc(C)n(C(C)C)c5c4)n3)nc2)CC1 + CC(Nc1ccc2c(c1)OCCn1cc(N3C(=O)OCC3C(F)F)nc1-2)C(N)=O .
false (0)

Now try CC(Cn1ccc(-c2ccc(C#N)c(Cl)c2)n1)NC(=O)c1cc(C(C)O)[nH]n1 (stereo unspecified) + CC(Nc1ncnc2nc[nH]c12)c1cc2cccc(Cl)c2c(=O)n1-c1ccccc1 .
false (0)

Now try CCCS(=O)(=O)Nc1ccc(F)c(C(=O)c2c[nH]c3ncc(-c4ccc(Cl)cc4)cc23)c1F + CC(Nc1ccc2c(c1)OCCn1cc(N3C(=O)OCC3C(F)F)nc1-2)C(N)=O .
false (0)

###

# Tested on: 624824-186-R-J3-PDC multicell spheroids, viability
# procedure_text: Anticancer human tumor 624824-186-R-J3-PDC cell line growth inhibition [PI3K];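 also: spheroids exposed to agents for seven days before luminescence read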;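 as to viability, T/C: luminescent signal used as a stand-in for spheroid viability; percent viability relative to DMSO vehicle control wells taken as 100%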
# stated_conditions: second compound 3.16 µM; first compound 1 µM; stronger effect = lower value
Label key: criterion met means viability, T/C under 80%; criterion not met means viability, T/C of 80% or more.

Please check: viability, T/C for CC(C)NCC(C(=O)N1CCN(c2ncnc3c2C(C)CC3O)CC1)c1ccc(Cl)cc1 (stereo not given) + CC(Nc1ncnc2nc[nH]c12)c1cc2cccc(Cl)c2c(=O)n1-c1ccccc1 , strictly under 80% or not?
criterion met

Now try CC1(C)CCC(CN2CCN(c3ccc(C(=O)NS(=O)(=O)c4ccc(NCC5CCOCC5)c([N+](=O)[O-])c4)c(Oc4cnc5[nH]ccc5c4)c3)CC2)=C(c2ccc(Cl)cc2)C1 + CC(Nc1ncnc2nc[nH]c12)c1cc2cccc(Cl)c2c(=O)n1-c1ccccc1 .
criterion not met

Now try CCCS(=O)(=O)Nc1ccc(F)c(C(=O)c2c[nH]c3ncc(-c4ccc(Cl)cc4)cc23)c1F + Cc1nc(NC(=O)N2CCCC2C(N)=O)sc1-c1ccnc(C(C)(C)C(F)(F)F)c1 .
criterion met

Now try Cn1ncc(Cl)c1-c1cc(C(=O)NC(CN)Cc2cccc(F)c2)sc1Cl (stereo not given) + CC(Nc1ncnc2nc[nH]c12)c1cc2cccc(Cl)c2c(=O)n1-c1ccccc1 .
criterion met

Now try Cn1nccc1Nc1nccc(-c2ccn(C(CO)c3ccc(Cl)c(F)c3)c(=O)c2)n1 (stereo not given) + Cc1nc(NC(=O)N2CCCC2C(N)=O)sc1-c1ccnc(C(C)(C)C(F)(F)F)c1 .
criterion met

Now try CC1(C)CCC(Nc2ncc(C(F)(F)F)c(-c3c[nH]c4c(P(C)(C)=O)c(C#N)ccc34)n2)CN1 (stereo not given) + Cc1nc(NC(=O)N2CCCC2C(N)=O)sc1-c1ccnc(C(C)(C)C(F)(F)F)c1 .
criterion met

Now try C#Cc1c(F)ccc2cc(O)cc(-c3ncc4c(N5CC6CCC(C5)N6)nc(OCC56CCCN5CC(F)C6)nc4c3F)c12 (stereo not given) + CC(Nc1ncnc2nc[nH]c12)c1cc2cccc(Cl)c2c(=O)n1-c1ccccc1 .
criterion not met

Now try CC(Cn1ccc(-c2ccc(C#N)c(Cl)c2)n1)NC(=O)c1cc(C(C)O)[nH]n1 (stereo not given) + Cc1nc(NC(=O)N2CCCC2C(N)=O)sc1-c1ccnc(C(C)(C)C(F)(F)F)c1 .
criterion not met

###

# Test system: 624824-186-R-J3-PDC multicell spheroids, viability
# procedure_text: Anticancer human tumor 624824-186-R-J3-PDC cell line growth inhibition [PI3K];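 also: spheroids exposed to agents for seven days before luminescence read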;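 as to viability, T/C: luminescent signal used as a stand-in for spheroid viability; percent viability relative to DMSO vehicle control wells taken as 100%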
# stated_conditions: second compound 0.316 µM; first compound 0.1 µM; stronger effect = lower value
Exercise: state measured viability, T/C for each of the compounds provided.
Value expressed in %; do not type the unit.

Need viability, T/C, item C[C@@H](NC(=O)c1ncnc(N)c1Cl)c1ncc(C(=O)Nc2cc(C(F)(F)F)c(Cl)cn2)s1 + CC(Nc1ncnc2nc[nH]c12)c1cc2cccc(Cl)c2c(=O)n1-c1ccccc1
105

Now try Cn1nccc1Nc1nccc(-c2ccn(C(CO)c3ccc(Cl)c(F)c3)c(=O)c2)n1 (stereo not given) + COc1c(OCCCN2CCOCC2)ccc2c3n(c(=NC(=O)c4cnc(N)nc4)nc12)CCN3 .
38.4

Now try CC(=O)c1c(C)c2cnc(Nc3ccc(N4CCNCC4)cn3)nc2n(C2CCCC2)c1=O + CC(Nc1ncnc2nc[nH]c12)c1cc2cccc(Cl)c2c(=O)n1-c1ccccc1 .
119

Now try CC(C)n1nc(-c2ccc3oc(N)nc3c2)c2c(N)ncnc21 + Cc1nc(NC(=O)N2CCCC2C(N)=O)sc1-c1ccnc(C(C)(C)C(F)(F)F)c1 .
40

Now try CNC(=O)c1ccc(N2C(=S)N(c3ccc(C#N)c(C(F)(F)F)c3)C(=O)C2(C)C)cc1F + CC(Nc1ncnc2nc[nH]c12)c1cc2cccc(Cl)c2c(=O)n1-c1ccccc1 .
93.3

Now try CC1(C)CCC(CN2CCN(c3ccc(C(=O)NS(=O)(=O)c4ccc(NCC5CCOCC5)c([N+](=O)[O-])c4)c(Oc4cnc5[nH]ccc5c4)c3)CC2)=C(c2ccc(Cl)cc2)C1 + COc1c(OCCCN2CCOCC2)ccc2c3n(c(=NC(=O)c4cnc(N)nc4)nc12)CCN3 .
46.9

Now try CC(Cn1ccc(-c2ccc(C#N)c(Cl)c2)n1)NC(=O)c1cc(C(C)O)[nH]n1 (stereo not given) + CC(Nc1ncnc2nc[nH]c12)c1cc2cccc(Cl)c2c(=O)n1-c1ccccc1 .
103

Now try CCN1CCN(Cc2ccc(Nc3ncc(F)c(-c4cc(F)c5nc(C)n(C(C)C)c5c4)n3)nc2)CC1 + COc1c(OCCCN2CCOCC2)ccc2c3n(c(=NC(=O)c4cnc(N)nc4)nc12)CCN3 .
27.4

Now try CC1(C)CCC(Nc2ncc(C(F)(F)F)c(-c3c[nH]c4c(P(C)(C)=O)c(C#N)ccc34)n2)CN1 (stereo not given) + Cc1nc(NC(=O)N2CCCC2C(N)=O)sc1-c1ccnc(C(C)(C)C(F)(F)F)c1 .
103

Now try Cn1ncc(Cl)c1-c1cc(C(=O)NC(CN)Cc2cccc(F)c2)sc1Cl (stereo not given) + CC(Nc1ncnc2nc[nH]c12)c1cc2cccc(Cl)c2c(=O)n1-c1ccccc1 .
101

Now try C=CC(=O)N1CCN(c2nc(=O)n(-c3c(C)ccnc3C(C)C)c3nc(-c4c(O)cccc4F)c(F)cc23)C(C)C1 (stereo not given) + COc1c(OCCCN2CCOCC2)ccc2c3n(c(=NC(=O)c4cnc(N)nc4)nc12)CCN3 .
53.1

Now try CCCS(=O)(=O)Nc1ccc(F)c(C(=O)c2c[nH]c3ncc(-c4ccc(Cl)cc4)cc23)c1F + Cc1nc(NC(=O)N2CCCC2C(N)=O)sc1-c1ccnc(C(C)(C)C(F)(F)F)c1 .
87.9

Now try Cn1nccc1Nc1nccc(-c2ccn(C(CO)c3ccc(Cl)c(F)c3)c(=O)c2)n1 (stereo not given) + CC(Nc1ncnc2nc[nH]c12)c1cc2cccc(Cl)c2c(=O)n1-c1ccccc1 .
88

Now try CCCS(=O)(=O)Nc1ccc(F)c(C(=O)c2c[nH]c3ncc(-c4ccc(Cl)cc4)cc23)c1F + CC(Nc1ccc2c(c1)OCCn1cc(N3C(=O)OCC3C(F)F)nc1-2)C(N)=O .
87.7

Now try CC1(C)CCC(CN2CCN(c3ccc(C(=O)NS(=O)(=O)c4ccc(NCC5CCOCC5)c([N+](=O)[O-])c4)c(Oc4cnc5[nH]ccc5c4)c3)CC2)=C(c2ccc(Cl)cc2)C1 + CC(Nc1ccc2c(c1)OCCn1cc(N3C(=O)OCC3C(F)F)nc1-2)C(N)=O .
95.3

Now try CCN1CCN(Cc2ccc(Nc3ncc(F)c(-c4cc(F)c5nc(C)n(C(C)C)c5c4)n3)nc2)CC1 + CC(Nc1ccc2c(c1)OCCn1cc(N3C(=O)OCC3C(F)F)nc1-2)C(N)=O .
77.2

Now try C=CC(=O)N1CCN(c2nc(=O)n(-c3c(C)ccnc3C(C)C)c3nc(-c4c(O)cccc4F)c(F)cc23)C(C)C1 (stereo not given) + Cc1nc(NC(=O)N2CCCC2C(N)=O)sc1-c1ccnc(C(C)(C)C(F)(F)F)c1 .
109

Now try CC1(C)CCC(CN2CCN(c3ccc(C(=O)NS(=O)(=O)c4ccc(NCC5CCOCC5)c([N+](=O)[O-])c4)c(Oc4cnc5[nH]ccc5c4)c3)CC2)=C(c2ccc(Cl)cc2)C1 + CC(Nc1ncnc2nc[nH]c12)c1cc2cccc(Cl)c2c(=O)n1-c1ccccc1 .
114

Now try CNC(=O)c1ccc(N2C(=S)N(c3ccc(C#N)c(C(F)(F)F)c3)C(=O)C2(C)C)cc1F + COc1c(OCCCN2CCOCC2)ccc2c3n(c(=NC(=O)c4cnc(N)nc4)nc12)CCN3 .
50.8

Now try CCCS(=O)(=O)Nc1ccc(F)c(C(=O)c2c[nH]c3ncc(-c4ccc(Cl)cc4)cc23)c1F + COc1c(OCCCN2CCOCC2)ccc2c3n(c(=NC(=O)c4cnc(N)nc4)nc12)CCN3 .
37.5
